# maps each entry to its half-life
Assay: Half life in human liver microsomes
Format: ADME
Express the result in h but write the number alone.

In the examples that follow, each entry is paired with its recorded half-life.
COMPOUND	half-life, h
Cc1ccc(-c2nc(C)c([C@H](OC(C)(C)C)C(=O)O)c(-c3ccc4c(c3)CCCO4)c2C)cc1C	0.567
Cc1noc(C)c1-c1ccc(-c2nc(C)c([C@H](OC(C)(C)C)C(=O)O)c(-c3ccc4c(c3)CCCO4)c2C)c(F)c1	1
Cc1ccc(-c2nc(C)c([C@H](OC(C)(C)C)C(=O)O)c(-c3ccc4c(c3)CCCO4)c2C)cc1	0.717
Cc1ccc(-c2nc(C)c([C@H](OC(C)(C)C)C(=O)O)c(-c3ccc4c(c3C)CCCO4)c2C)cc1C (single isomer, unassigned; atropisomer)	1.13
Cc1ccc(-c2nc(C)c([C@H](OC(C)(C)C)C(=O)O)c(-c3ccc4c(c3Cl)NCCO4)c2C)cc1C (single isomer, unassigned; atropisomer)	1.7
Cc1noc(C)c1-c1ccc(-c2nc(C)c([C@H](OC(C)(C)C)C(=O)O)c(-c3ccc(Cl)cc3)c2C)cc1	3.83

I'd like to know its half-life. The compound in question is Cc1cc(-c2nc(C)c([C@H](OC(C)(C)C)C(=O)O)c(-c3ccc4c(c3)CCCO4)c2C)ccc1Cl
0.717

I'd like to know its half-life. The compound in question is Cc1ccc(-c2nc(C)c([C@H](OC(C)(C)C)C(=O)O)c(-c3ccc(Cl)cc3)c2C)cc1C
1.28

I'd like to know its half-life. The compound in question is Cc1nc(-c2ccccc2)c(C)c(-c2ccc3c(c2)CCCO3)c1[C@H](OC(C)(C)C)C(=O)O
0.533
